These entries and their values trace back to ChEMBL document CHEMBL1152288.

Below is a list of entries, each paired with its recorded pIC50 value.
- experimental-target: UniProt:Q12809
- Sequence (Q12809 whole entry): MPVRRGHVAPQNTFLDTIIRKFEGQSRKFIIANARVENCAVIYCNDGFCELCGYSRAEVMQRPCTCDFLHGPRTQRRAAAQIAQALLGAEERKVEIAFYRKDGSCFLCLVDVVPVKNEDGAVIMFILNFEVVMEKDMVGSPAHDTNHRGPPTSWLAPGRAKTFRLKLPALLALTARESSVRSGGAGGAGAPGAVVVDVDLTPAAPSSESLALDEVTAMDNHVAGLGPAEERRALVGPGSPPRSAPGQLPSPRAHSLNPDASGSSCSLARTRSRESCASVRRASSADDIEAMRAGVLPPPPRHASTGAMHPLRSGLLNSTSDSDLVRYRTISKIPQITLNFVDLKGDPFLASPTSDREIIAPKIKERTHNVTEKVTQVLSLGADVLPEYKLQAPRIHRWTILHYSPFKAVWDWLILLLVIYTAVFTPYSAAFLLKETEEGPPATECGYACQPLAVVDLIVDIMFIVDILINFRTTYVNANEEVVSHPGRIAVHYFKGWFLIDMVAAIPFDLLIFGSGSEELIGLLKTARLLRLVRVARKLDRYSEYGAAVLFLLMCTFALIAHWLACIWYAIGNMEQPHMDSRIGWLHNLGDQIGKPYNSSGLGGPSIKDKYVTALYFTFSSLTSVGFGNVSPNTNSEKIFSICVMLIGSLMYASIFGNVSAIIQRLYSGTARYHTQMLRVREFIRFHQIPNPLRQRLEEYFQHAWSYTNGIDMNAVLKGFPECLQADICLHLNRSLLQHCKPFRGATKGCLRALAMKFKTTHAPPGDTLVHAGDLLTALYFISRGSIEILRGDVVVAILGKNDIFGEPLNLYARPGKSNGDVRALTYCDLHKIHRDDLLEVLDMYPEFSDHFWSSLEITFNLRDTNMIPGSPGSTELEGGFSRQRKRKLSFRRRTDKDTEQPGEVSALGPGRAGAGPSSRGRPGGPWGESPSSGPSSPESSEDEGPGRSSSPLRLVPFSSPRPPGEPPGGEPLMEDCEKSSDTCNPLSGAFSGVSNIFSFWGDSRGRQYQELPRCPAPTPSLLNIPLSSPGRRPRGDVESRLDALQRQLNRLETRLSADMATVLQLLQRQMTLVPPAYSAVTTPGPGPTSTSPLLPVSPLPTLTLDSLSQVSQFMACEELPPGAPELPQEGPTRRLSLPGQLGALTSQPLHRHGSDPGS
pIC50: −log10 of the molar value.

# sample-smiles, pIC50
data = [
    ("C=CCN(C(=O)[C@@]1(c2cccs2)C[C@H]1CN)C1CC1", "< 5.00"),
]

Next item in the queue.
Q: // lookup pIC50 for C=C(F)CN(CC)C(=O)[C@@]1(c2cccs2)C[C@H]1CN
A: < 5.00

----------
- assay-summary: Renal clearance in monkey at 5 mg/kg, iv or 30 mg/kg, po
- Format: ADME, organism-based, Macaca mulatta, Kidney
- recorded-conditions: rhesus monkey, in vivo; read-out: CL_renal
metric: CL renal (mL/min/kg)
// note: answer is a bare numeric in mL/min/kg

# sample-smiles, CL renal [mL/min/kg]
rows = [
    ("C=CCN(CC=C)C(=O)[C@@]1(c2cccs2)C[C@H]1CN.Cl", 3.9),
]

Q: // lookup CL renal for C=C(F)CN(CC)C(=O)[C@@]1(c2cccs2)C[C@H]1CN.Cl
A: 6
